target: T1, FITC-labeled salmon calcitonin (sCT) fragment(22–32) (salmon, fluorescein isothiocyanate (FITC) label, position not stated); experiment: fluorescence polarisation; saturation binding format; 10 nM FITC-labeled peptide probe, purified receptor ECD at rising concentrations; 1 h at room temperature; anisotropy; mean pKD of at least three independent experiments; conditions: both partners purified
T1 construct: salmon calcitonin, residues 22-32 (11 amino acids); numbers count on: the mature 32-residue hormone; probably FITC at the N-terminus and a C-terminal amide, neither stated for this peptide; also called FITC-sCT(22–32); sCT(22–32); source: synthetic peptide (custom-synthesized, Genscript, HPLC-purified)
QUANTITY_KIND: Kd (nM)
// return numeric value only (unit: nM, not printed)

Example binders with recorded Kd:
amylin receptor 1 extracellular domain with calcitonin receptor N124D (hRAMP1.24–111-(GSA)3-hCTR.34–141.N124D-H6) (receptor, N-glycosylated (sites not given)) TTACQEANYGALLRELCLTQFQVDMEAVGETLWCDWGRTIRSYRELADCTWHMAEKLGCFWPNAEVDRFFLAVHGRYFRSCPISGRAVGSAGSAGSAIEPKPFLYVVGRKKMMDAQYKCYDRMQQLPAYQGEGPYCNRTWDGWLCWDDTPAGVLSYQFCPDYFPDFDPSEKVTKYCDEKGVWFKHPEDNRTWSNYTMCNAFTPEK	52
amylin receptor 1 extracellular domain with calcitonin receptor E123D (hRAMP1.24–111-(GSA)3-hCTR.34–141.E123D-H6) (receptor, N-glycosylated (sites not given)) TTACQEANYGALLRELCLTQFQVDMEAVGETLWCDWGRTIRSYRELADCTWHMAEKLGCFWPNAEVDRFFLAVHGRYFRSCPISGRAVGSAGSAGSAIEPKPFLYVVGRKKMMDAQYKCYDRMQQLPAYQGEGPYCNRTWDGWLCWDDTPAGVLSYQFCPDYFPDFDPSEKVTKYCDEKGVWFKHPDNNRTWSNYTMCNAFTPEK	53

## Task Quick check: Kd of amylin receptor 1 extracellular domain with calcitonin receptor D97A (hRAMP1.24–111-(GSA)3-hCTR.34–141.D97A-H6) (receptor, N-glycosylated (sites not given)) TTACQEANYGALLRELCLTQFQVDMEAVGETLWCDWGRTIRSYRELADCTWHMAEKLGCFWPNAEVDRFFLAVHGRYFRSCPISGRAVGSAGSAGSAIEPKPFLYVVGRKKMMDAQYKCYDRMQQLPAYQGEGPYCNRTWDGWLCWDDTPAGVLSYQFCPAYFPDFDPSEKVTKYCDEKGVWFKHPENNRTWSNYTMCNAFTPEK ?
## Result 548
